target: NADPH oxidase 2 (Homo sapiens) (UniProt P04839); assay: NOX2-dependent H2O2 signal modulators, primary screen, NOX inhibitor project, cell-based, HEK293-NOX2, PMA-stimulated, Amplex Red fluorescence (AID 1159); settings: 45 min, higher = more signal, called active from +8 up or from −8 down; note: test concentration not given here
Sequence (P04839 whole entry, looked up): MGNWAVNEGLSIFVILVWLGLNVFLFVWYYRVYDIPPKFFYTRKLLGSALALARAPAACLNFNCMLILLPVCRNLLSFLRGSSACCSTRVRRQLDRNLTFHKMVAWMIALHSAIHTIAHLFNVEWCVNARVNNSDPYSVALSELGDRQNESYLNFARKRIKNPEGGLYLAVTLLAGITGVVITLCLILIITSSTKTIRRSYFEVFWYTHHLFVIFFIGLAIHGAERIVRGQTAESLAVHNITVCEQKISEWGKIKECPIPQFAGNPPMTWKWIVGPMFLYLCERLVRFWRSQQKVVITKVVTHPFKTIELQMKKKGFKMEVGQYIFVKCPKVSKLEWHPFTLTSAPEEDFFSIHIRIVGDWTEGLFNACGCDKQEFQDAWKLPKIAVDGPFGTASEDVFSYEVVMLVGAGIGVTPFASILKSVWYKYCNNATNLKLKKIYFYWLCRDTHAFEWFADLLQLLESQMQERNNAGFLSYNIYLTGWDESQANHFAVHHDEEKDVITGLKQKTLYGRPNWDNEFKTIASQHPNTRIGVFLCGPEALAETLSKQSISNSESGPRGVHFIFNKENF
Recorded z-score, one value per entry.
Lab note: record the figure alone, no unit after it.

Worked cases, z-score given:
INSERT INTO measurements (molecule, obs_value) VALUES
  ('O=C1[C@H]2[C@H]3[C@H](O)[C@H](O)CC(=NOC[C@@H](O)COCc4ccco4)[C@@H]3CC[C@H]2C(=O)N1Cc1ccc2c(c1)OCO2', -2.68),
  ('O=C1C=C[C@@H](O)[C@@H]2[C@@H]3C(=O)N(Cc4ccc5c(c4)OCO5)C(=O)[C@@H]3CC[C@@H]12', 1.41),
  ('CCOC(=O)CCN1C(=O)[C@H]2[C@H]3[C@H](O)[C@H](O)CC(=NOCC=C(C)CCC=C(C)C)[C@@H]3CC[C@H]2C1=O', -0.737),
  ('CCc1cc2c(nc1CC)CCN(CCC(C)=NOCC[C@@H]1C=C[C@H](OC(C)=O)[C@@H](COC(C)=O)O1)C2', -0.572),
  ('CO[C@@H]1C=CCC(=O)N[C@@H](C)C(=O)OC[C@@H](NS(=O)(=O)c2ccc(C)cc2)[C@H](C)C=CCC(=O)OC[C@H]1C', -9.51);

What value of z-score has been reported for the following molecule? COC(=O)[C@H](C)NC(=O)CCC1CC(OC(=O)NCc2cccc3ccccc23)CC2(CCCC(COC(=O)NCCc3ccccc3OC)O2)O1 (stereo not given in full)
-0.49

// lookup z-score for `CC(C)CN1CCc2nc(-c3ccccc3)c3c(c2C1)CO[C@@H](C)C3`
2.18

Please report the recorded z-score for `CO[C@@H]1COC(=O)[C@H](CCSC)NC(=O)CC=C[C@@H](C)COC(=O)[C@@H]2CCCN2C(=O)CC=C[C@H]1C` .
-2.15
